Where a name gives a salt, the structure may show the parent alone.
Quick reference for melting point among some compounds
measured.metric: melting point

> print(dat)
                                   compound       reported
1  Cc1ccc(-c2ccc3c(c2)-n2cc(-c4ccnn4C)cc2C(=O)N(C)C32CC2)cn1 (as salt: hydrochloride)  187 to 194 °C
2     Cc1ccc2c(c1)C1(CC1)N(C)C(=O)c1cccn1-2  143 to 150 °C
3  CCc1ncccc1-c1ccc2c(c1)-n1cc(-c3ccccc3)cc1C(=O)N(C)C21CC1 (as salt: hydrochloride)  179 to 183 °C
4  CN1C(=O)c2cccn2-c2cc(-c3cc[nH]c(=O)c3)ccc2C12CC2  183 to 197 °C
5       Cc1cccc2c1C1(CC1)N(C)C(=O)c1cccn1-2  126 to 134 °C
6  CN1C(=O)c2cccn2-c2cc(-c3ccc(F)nc3)cc(F)c2C12CC2  220 to 225 °C
7  CN1C(=O)c2cccn2-c2cc(-c3c[nH]nc3C(F)(F)F)ccc2C12CC2       > 250 °C
8  CN1C(=O)c2cc(-c3ccccc3)cn2-c2cc(-c3ccc(N)nc3)ccc2C12CC2 (as salt: hydrochloride)       > 250 °C

----------
molecular target: human mGluR3 (hmGluR3) (Homo sapiens, UniProt Q14832); test: Human mGluR3 positive allosteric modulator evaluation using Ca++ functional assay; settings: hmGluR3 transiently over-expressed in HEK-293 cells; stimulated by EC50 glutamate concentration; intracellular Ca2+ (Fluo4AM, FLIPR Tetra)
Sequence (Q14832 23-879): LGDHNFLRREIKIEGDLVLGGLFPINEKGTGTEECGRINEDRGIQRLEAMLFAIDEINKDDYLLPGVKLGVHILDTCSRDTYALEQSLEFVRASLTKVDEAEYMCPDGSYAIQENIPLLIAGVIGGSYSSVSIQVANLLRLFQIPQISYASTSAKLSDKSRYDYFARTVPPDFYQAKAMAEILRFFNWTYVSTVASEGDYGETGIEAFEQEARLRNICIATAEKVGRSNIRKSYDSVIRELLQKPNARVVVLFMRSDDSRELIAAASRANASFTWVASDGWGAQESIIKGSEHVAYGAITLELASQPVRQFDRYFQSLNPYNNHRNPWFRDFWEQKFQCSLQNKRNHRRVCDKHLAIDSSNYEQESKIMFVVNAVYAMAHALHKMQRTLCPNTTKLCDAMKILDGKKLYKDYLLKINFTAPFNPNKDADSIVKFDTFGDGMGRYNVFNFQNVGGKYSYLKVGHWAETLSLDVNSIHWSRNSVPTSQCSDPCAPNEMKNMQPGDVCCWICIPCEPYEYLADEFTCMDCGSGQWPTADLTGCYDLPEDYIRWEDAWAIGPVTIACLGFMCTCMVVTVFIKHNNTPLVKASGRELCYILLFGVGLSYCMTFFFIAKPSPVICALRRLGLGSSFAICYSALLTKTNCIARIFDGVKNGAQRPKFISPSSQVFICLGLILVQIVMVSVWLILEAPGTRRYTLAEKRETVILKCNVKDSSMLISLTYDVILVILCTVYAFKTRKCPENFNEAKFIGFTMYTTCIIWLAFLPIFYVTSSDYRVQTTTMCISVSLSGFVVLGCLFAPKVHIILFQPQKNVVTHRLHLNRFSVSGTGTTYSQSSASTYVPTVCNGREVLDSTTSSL
pEC50: −log10 of the molar value.
measured.metric: pEC50

> print(dat)
                                  mol.smiles      reported
 1  Cc1ncccc1-c1ccc2c(c1)-n1cc(-c3cccc(Cl)c3)cc1C(=O)N(C)C21CC1  6.00 to 7.00
 2  Cc1ccc(-c2ccc3c(c2)-n2cc(-c4ccnn4C)cc2C(=O)N(C)C32CC2)cn1        > 7.00
 3  CN1C(=O)c2cc(-c3ccccc3)cn2-c2cc(-c3cccnc3)ccc2C12CC2        > 7.00
 4  CN1C(=O)c2cc(-c3ccccc3)nn2-c2cc(C#N)ccc2C12CC2        < 6.00
 5  Cc1ncccc1-c1ccc2c(c1)-n1cc(-c3ccccc3F)cc1C(=O)N(C)C21CC1        > 7.00
 6  CN1C(=O)c2cccn2-c2cc(-c3ccnc(C(F)(F)F)c3)ccc2C12CC2  6.00 to 7.00
 7  CN1C(=O)c2cc(-c3ccccc3)nn2-c2cc(-c3cc[nH]n3)ccc2C12CC2  6.00 to 7.00
 8            CN1C(=O)c2cccn2-c2ccccc2C1(C)C        < 6.00
 9  Cc1ncccc1-c1ccc2c(c1)-n1c(cc(Cl)c1F)C(=O)N(C)C21CC1        > 7.00
10  CN1C(=O)c2cccn2-c2cc(-c3c[nH]nc3C(F)(F)F)ccc2C12CC2        < 6.00
11  CN1C(=O)c2cccn2-c2cc(C3=CCNCC3)ccc2C12CC2        < 6.00
12  CN1C(=O)c2cc(-c3ccccc3)nn2-c2cc(-c3cccc(C#N)c3)ccc2C12CC2  6.00 to 7.00
13  Cc1ncccc1-c1ccc2c(c1)-n1cc(-c3cc[nH]n3)cc1C(=O)N(C)C21CC1        > 7.00
14  CN1C(=O)c2cccn2-c2cc(-c3ccc(C(F)(F)F)cn3)ccc2C12CC2  6.00 to 7.00
15  CN1C(=O)c2cccn2-c2cc(-c3ccc(F)nc3)c(F)cc2C12CC2  6.00 to 7.00
16  COc1ccc(-c2ccc3c(c2)-n2nc(-c4ccccc4)cc2C(=O)N(C)C32CC2)cc1  6.00 to 7.00
17  CN1C(=O)c2cccn2-c2cc(-c3ccc(F)nc3)ccc2C12CC2        > 7.00

Measured values drawn from patent US11008323B2 for this set.
